# Tested on: ENR+CD organoids (ISC to Paneth cell differentiation)
# PROTOCOL: Primary screen: basal (non-stimulated) lysozyme secretion LYZ.NS, 2.5-D 384-well ENR+CD organoid differentiation
# Type: cell-based, mouse
# CONDITION DESCRIPTION: primary screen; dose 2.00 uM; FC vs plate median
Measured Dose.FC.LYZ.NS accompanies every entry in the list below.
Record the value in log2 fold change, omitting the unit from your answer.

Here are 5 compounds together with their reported answers.
COMPOUND	Dose.FC.LYZ.NS, log2 fold change
O=C(NOC[C@H](O)CO)c1ccc(F)c(F)c1Nc1ccc(I)cc1F [PD0325901]	−0.139
COc1cc(OC)c(NC(=O)Nc2cc(C)on2)cc1Cl [PNU-120596]	0.068
OCCn1cc(-c2cnc3nnn(Cc4ccc5ncccc5c4)c3n2)cn1 [PF-04217903]	0.122
CS(=O)(=O)c1cccc(CNc2nc(Nc3ccc4c(c3)CCC(=O)N4)ncc2C(F)(F)F)c1 [PF-573228]	−0.058
CCCC(=O)Nc1cccc(NC(=O)c2ccccc2Br)c1 [ML161]	0.037

Query CCc1c(C(=O)NCCc2ccc(N3CCCCC3)cc2)[nH]c2ccc(Cl)cc12 [Org 27569] on ENR+CD organoids (ISC to Paneth cell differentiation); Dose.FC.LYZ.NS returned: 0.078

Query CC(C)(Cc1ccc2ccccc2c1)NC[C@@H](O)COc1cccc(Cl)c1C#N [NPS-2143] on ENR+CD organoids (ISC to Paneth cell differentiation); Dose.FC.LYZ.NS returned: −0.077

Query Cc1ccccc1C(=O)Nc1ccc(C(=O)N2CCCC(N(C)C)c3ccccc32)cc1 (centres unmarked) [Mozavaptan] on ENR+CD organoids (ISC to Paneth cell differentiation); Dose.FC.LYZ.NS returned: 0.034

Query CCN(CC)CCCC(C)Nc1nc(C)cc(Nc2ccc3nc(C)cc(N)c3c2)n1 (centres unmarked) [NSC 23766] on ENR+CD organoids (ISC to Paneth cell differentiation); Dose.FC.LYZ.NS returned: 0.058

Query O=C(NNc1ccccc1)c1ccncc1 [PluriSIn #1 (NSC 14613)] on ENR+CD organoids (ISC to Paneth cell differentiation); Dose.FC.LYZ.NS returned: −0.107

Query NC(=O)N1c2ccccc2CC(=O)c2ccccc21 [Oxcarbazepine] on ENR+CD organoids (ISC to Paneth cell differentiation); Dose.FC.LYZ.NS returned: 0.040
